# Tested on: Escherichia coli TOP10;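 note: peptides expressed intracellularly from a pBAD plasmid library in pooled LB shake-flask culture, induced with 0.3% L-arabinose, DNA abundance read by NGS, three biological replicates, DESeq2 with apeglm shrinkage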
# test_method_notes: shrunken log2 fold change of peptide-encoding DNA abundance (4.5 h post-induction vs induction); higher = less antimicrobial activity (less host growth inhibition)
# condition_context: time post-induction: 4.5 h; library: site-saturation at positions 5, 18, 19, 20
endpoint: shrunken log2 fold change

# count of solved cases: 3
- sequence: "RRIRHRPPRLPRPRPRPVRWPRP"
  result: 0.98
- sequence: "RRIRHRPPRLPRPRPRPEYWPRP"
  result: -0.0523
- sequence: "RRIRQRPPRLPRPRPRPLVDPRP"
  result: 0.187

Given item RRIRLRPPRLPRPRPRPQYGPRP , the value recorded as its shrunken log2 fold change is 0.0165

Documented shrunken log2 fold change of RRIRHRPPRLPRPRPRPCKNPRP : -0.444

Noted for RRIRWRPPRLPRPRPRPIASPRP : its shrunken log2 fold change reads 0.104

Form field shrunken log2 fold change, entry RRIRMRPPRLPRPRPRPSSHPRP : 0.0506

# shrunken log2 fold change (sequence: RRIRARPPRLPRPRPRPIRNPRP ) is -0.179

sequence RRIRWRPPRLPRPRPRPPEAPRP , shrunken log2 fold change observed: 0.428

The recorded shrunken log2 fold change for entry RRIRRRPPRLPRPRPRPCPCPRP equals -0.176

Reported shrunken log2 fold change ( RRIRCRPPRLPRPRPRPPWDPRP ) = 0.526

shrunken log2 fold change reported for this sequence RRIRPRPPRLPRPRPRPLVSPRP : 0.00371
